Experiment: folding stability dG unfold (combined trypsin and chymotrypsin); higher = more stable
Known folding stability dG unfold of a selection of sequences
Please reply with the bare figure in kcal/mol and do not write the unit itself.

As a guide, the following entries are already answered.
SAGGSSNVGEVTIEIREPVNPERFVDPEYREKAIEEMKEKAEAKAEEIKKENPNVKVTVNISLLEPGSAGGS [r8_183_JUSTAS]    -0.00749
SAGGSAKKTYIIKIPVKEIVVKDKKTGKYKPISAEELAKLLEEKTGLKVEIVEVKDGYIVIKVKEKSAGGSA [r15_55_TrROS_Hall]    2.74
SAGMTTEKSPSGVGRVYLPTRTLELELLPDGTVVLRFPDGTEVVHPLSPEEAAAVRAELRARGLVVRPLSAG [r5_753_JUSTAS]    1.7
SAGGSAGGNPDTPVLTRKTSETFNIAPGEVVKFPDSSVVTPTEDGTYTIDKTITYNGPPDKPLTSAGGSAGG [r6_635_JUSTAS]    -0.279

// returns reported folding stability dG unfold for input MNIPLKEILDKAKAEGKPVVFPDGTKTLSFEPGGKATIEKPVEVPGKPGVPLETKTYTIDINEDGSVTVNDS [r1_284_JUSTAS]
-0.373

Query (sequence): SAGMISSVSSEPSTNTTTATIPETGKTITYNPETGTLTVTPPTGNPSVIPVETPEEAERAMEEVIAELSSAG [r5_467_JUSTAS] ; field requested: folding stability dG unfold
0.816

Give its folding stability dG unfold value. Item: SAGGMVVVAVEVDPVTKTATIVYAAPVPNLGGYVPIPAAAVAKRLTEELGLPDVKEVTVAQAAGDVPISAGG [r13_327_TrMRF]
0.578

Look at this sequence and give its reported folding stability dG unfold. SAGGSAMTVTVELEFEPVTVTDADGKEREVPVRVKVTAKVELVRDPETGELVERVEVTSIEIEVEPSAGGSA [r15_884_TrROS_Hall]
1.87

###

Experiment: folding stability dG unfold from chymotrypsin proteolysis; higher = more stable
# Lookup of reported folding stability dG unfold keyed by entry
The answer should read as a number with its unit following.

SAMRMISFPIESPEELEDELEEKFGVEVETFPDGMRMIKFRRNNEPVIIMIPPNNGHITIIPPEDMDKMSAG [r14_402_TrROS]    1.28 kcal/mol
SAGMIATITITRPGTGSITLTVPVPVPSEEEARAYAEAVREALRAADPGPLEVSVEFERVPPVPPERLGSAG [r5_87_JUSTAS]    1.85 kcal/mol
SAGGSAGGSIKPGQKVKIEIKVEEVDGKLVITAKVYNKDGKLIYEAEIVIENGKIKEVKITPPSAGGSAGGS [r12_264_TrROS_Hall]    3.11 kcal/mol

// below: folding stability dG unfold requested for another sequence
For the sequence SAGGMTRVLELTVPVDVIGPEELKALLEALAEDAEVEFEIGPDGLLRVRVTVDVPPDPDAPPDLDGESAGGS [r16_535_TrMRF] , what folding stability dG unfold is on record?
2.4 kcal/mol

###

Test: folding stability dG unfold from trypsin proteolysis; higher = more stable
Measured Endpoint: folding stability dG unfold (kcal/mol)
Write it as a number; the unit kcal/mol goes unstated.

SAKEELYIIEIKVYVDGKEVKTITKVITVPEEKLEEKLKELLKKLAEELGLEIKKVEVKIKKLSLEELKSAG [r14_104_TrROS_Hall]    2.79
SAGGSAGGSAGGDDNDKEPIGEVTVEVIIPPQIPIRIRWDIYKDPPNGNAMMNMDIDIHSAGGSAGGSAGGS [r10_6_TrROS]    0.638
SAGKKKKIKIKVTIVVPVKTKEDVELMKELAEKFAPELGKETAKKLGLPPEVEEIEVDVNILIVSPEELSAG [r5_436_TrMRF]    1.48
SAGGSAMPEDTPFVVTKTTEYRLPDGSRVTFEPVPETGKTLVTFTPPDGSSERVWLTPEEAEKLLASAGGSA [r15_2_JUSTAS]    1.11
SAGGSAGGSAGKPTLKLVLKFDSPEQAKAAAEALAKAGYKVKVELKEYPDGLYLVVTVEPSAGGSAGGSAGG [r11_677_TrROS_Hall]    3.29

Entry under review: SAGMVVVKVTLPGPEEALRAAAAAVPVPVSIERDPEKPDVWTATITFPSPELAPVFVEAFAALGAEVVGSAG [r14_745_JUSTAS] . Reported folding stability dG unfold?
1.96

Which folding stability dG unfold is listed for SAGGSAGMPPDEPVVKTTVIPTSTAVKDAAGNPLTPEELAAAVKAAYPDVEVSFGPGNTLTITLTRSAGGSA [r15_645_JUSTAS] ?
1.33

###

Test: folding stability dG unfold (combined trypsin and chymotrypsin); higher = more stable
The following sequences are shown together with reported folding stability dG unfold values.
Kindly answer with a numeric value in kcal/mol, unit omitted.

These solved cases illustrate the format of a correct answer.
SAGGSAGGSSLLVLRELADGGVALHLIDVEPDEPVGVETVLDEFRELHPDTPPLPVLILRPDPSAGGSAGGS [r12_262_TrMRF]    0.115
SAGGSAGGSAGKKYKVVEVKENKDGTVELVVENENGEKKKITLSKEELDKLKAGDTVELKSAGGSAGGSAGG [r11_943_TrROS_Hall]    2.47
SMKVVKLYTDPEGRVVIEITLPKPDGTPVSEEEAKAIADEIAAELKPKYPNATFEITYDPKTGVVTITIGSA [r9_485_JUSTAS]    2.97

Recorded folding stability dG unfold for SAGGSIEEAKKAAEKLAKEIAEKKGWTVKSVEVEKLPDGTVRATITIKYPDGSEETIEVTIPPNTPLSAGGS [r8_175_JUSTAS] , please?
1.91

For the sequence SAGGSSSSLIGEIKLPSNVTIKIERSSKGVRTAVVTFPETGKVVTLPLDPNVSIEEIIEKVKEIVEKKSAGG [r13_624_JUSTAS] , what folding stability dG unfold is on record?
1.71

State the recorded folding stability dG unfold for this entry: SAMKITIEEVEVKEGDTVTIRIDASEEELENFLKELAEKLGAEVVEVEVKKNENGSLEVTVKVKEVKKPSAG [r14_655_TrROS_Hall]
1.04

###

Experiment: folding stability dG unfold from chymotrypsin proteolysis; higher = more stable
Label scheme for folding stability dG unfold: lower than 2 kcal/mol is label 0, 2 kcal/mol and above is label 1.

See these solved cases before continuing.
SAGGSAGGSAGGKVVKFTRPDGKPVDAKKILSYDPDKPKLYVLVEDEGPVELREVDADKDSAGGSAGGSAGG [r7_236_TrMRF]    label 0
SAGGMELVSRKRLSTSADGSVTYLYEYYDPKTGKRYTLVVTVKTPDGKIKPKVFTADSEEEAKKIALESAGG [r13_26_JUSTAS]    label 0
SAGGSIEELAEELARRFAEENGAAEVRVEVEGLPDNTVLVRVYVRGPDGELLGVVDALIPVPEDELSAGGSA [r2_153_TrMRF]    label 1

Assess whether reported folding stability dG unfold for SAGGSAKPEPIKIEIGPGGNRFKATFPNGDEADVDVVKDGDKTYLLITVTSPDGKPRPFKIPLEKLSAGGSA [r15_941_TrMRF] sits at 2 kcal/mol or higher.
label 1

# bool: folding stability dG unfold of SAGGSAGGSAGGLPEDIELEVEPLEITLEDGSRVRILIARAPDPEIAAIDIEVFPPDDPKSAGGSAGGSAGG [r11_338_TrMRF] >= 2 kcal/mol
label 0

Hi, just wondering whether SAMEVKIEKVEVKDGTVRITVTVKVSEEQLEKVKELAEKLKEKGYEVKVVKVEKLEDGTIKVEIEVKPKSAG [r14_354_TrROS_Hall] shows folding stability dG unfold of 2 kcal/mol or higher.
label 1

folding stability dG unfold >= 2 kcal/mol for SAGGSAGGSMEELPEGAELIREEDGVAVVRNENGELLVVRRVDGKLEVRRFPPGMSIEEALAKSAGGSAGGS [r12_605_TrROS_Hall] ?
label 1

###

Assay: folding stability dG unfold from chymotrypsin proteolysis; higher = more stable
If the reported folding stability dG unfold equals or exceeds 2 kcal/mol, assign Y. If not, assign N.

As a guide, the following entries are already answered.
SAGGSAGGSEAKIELEYDEETNTLTVRIEVDGELYEERIEVTIEPAPPPPPPVEVVVVELPEESAGGSAGGS [r12_70_TrROS_Hall]    Y
SAGGSAGGSVLVIDSPEQIKKAIKEFKDNGAKSIHIRGPGRYWVIQIDPKEPKVKVERVPLGQSAGGSAGGS [r12_368_TrROS]    N
SAGGSMTFKAEVTPLDTFPLFDANGKPVAEVKVYTATIEFPDGSRVEIRGVEVGDELYILEIRPLDSAGGSA [r2_158_TrMRF]    Y

Could you tell me if the measured folding stability dG unfold of SAGGSAGGSAGASSLTLEELLKLHPGTVVRKERVELVEGKLVIDLVVEKVDPDTDKLTPESAGGSAGGSAGG [r11_20_JUSTAS] reaches 2 kcal/mol or more?
N

Check if folding stability dG unfold >= 2 kcal/mol (inclusive). Item: SAGGSMELELEVKNPETGKTYKVKITSFDEETGEVTVEIEDEETGETKTLTFKVEPVELVEEEEEESAGGSA [r2_147_TrROS_Hall]
Y

Quick check, folding stability dG unfold >= 2 kcal/mol? SAGGMIKVEVEPLEDGVLRVRVYVPHPDGPPIEIEVVFPPEVGSLEEALEKAVEVVEEFLKKHNIPLSAGGS [r8_464_TrMRF]
Y

FYI, the data here is from the supplement of paper PMC12764529.
